# methodDescription: A549 cell viability effects, profiling panel, calcein-AM fluorescence, 48 h, basal (AID 1162); further: test concentration not given here
# assayContext: higher = more signal
We use -0.2 as the dividing line for z-score: on or above the line is condition met, below is condition not met.

INSERT INTO assay_data (compound, classification) VALUES
  ('C=C(CCCC)C(=O)CC[C@H](OC(C)=O)c1ccccc1OCCO', 'condition not met'),
  ('COc1ccc(NN2C(C(O)c3ccc(OC)cc3)C=CC3C(=O)N(C4CCCCC4)C(=O)C32)cc1 (centres undefined)', 'condition not met');

Field: next compound
Test whether the compound "C[N+](C)(C)CCCC[C@@H]1NC(=O)[C@H]2C[C@@H](C(=O)NCCCCCNC(=O)CS)[C@@H](c3ccc(O)cc3)N2C1=O" records z-score of -0.2 or higher.
condition met

###

Entries annotated with measured z-score
# measurementTarget: NADPH oxidase 2 (Homo sapiens)
# methodDescription: NOX2-dependent H2O2 signal modulators, primary screen, NOX inhibitor project, cell-based, HEK293-NOX2, PMA-stimulated, Amplex Red fluorescence (AID 1159); further: test concentration not given here
# assayContext: 45 min, higher = more signal, called active from +8 up or from −8 down
The source made the active and inactive calls.

What is its z-score for NADPH oxidase 2 (Homo sapiens)? Entry: "COC(=O)[C@@]1(Cc2ccc(OC)cc2)[C@H]2c3cc(C(=O)N(C)C)n(Cc4ccsc4Br)c3C[C@H]2CN1C(=O)c1ccccc1"
0.555 (inactive)

What is its z-score for NADPH oxidase 2 (Homo sapiens)? Entry: "COCCOC(=O)N1C(=O)[C@@]2(c3cc(C#CC4=CCCCC4)ccc31)[C@H](c1ccc(OCCO)cc1)N1[C@H](c3ccccc3)[C@H](c3ccccc3)OC(=O)[C@H]1[C@@H]2C(=O)N1CCCCCCC1"
1.44 (inactive)

What is its z-score for NADPH oxidase 2 (Homo sapiens)? Entry: "COCCOC(=O)N1C(=O)[C@@]2(c3ccccc31)[C@H](C(N)=O)[C@H]1C(=O)O[C@H](c3ccccc3)[C@H](c3ccccc3)N1[C@@H]2c1ccc(OCCO)cc1"
-0.555 (inactive)

###

Entries annotated with measured composite z-score
# methodDescription: binders of probe aFGF10 on microarray, primary screen, stem cell growth factor project, biochemical, small-molecule microarray, fluorescence 635/667 (AID 1071);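 further: score merges 667 nm spot intensity and signal to noise from triplicate slides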
# assayContext: higher = more signal

Worked set:
INSERT INTO measurements (molecule, result) VALUES
  ('C=CCOC(=O)[C@H]1[C@@H]2C(=O)O[C@@H](c3ccccc3)[C@@H](c3ccccc3)N2[C@@H](c2ccc(OCCOC(=O)[C@@H]3C[C@@H]4C(=O)N[C@@H](CC(C)C)C(=O)N4[C@@H]3c3ccc(O)cc3)cc2)[C@]12C(=O)Nc1ccc(I)cc12', -0.0479),
  ('C=C(CCCC)/C(=C/C[C@H](OC(C)=O)c1cccc(OCCO)c1)c1cc(C(=O)OC)ccc1OC', -0.0418),
  ('CN1C=C(C(=O)OCCS(C)(=O)=O)C(C(=O)OCCS(C)(=O)=O)=CC(CCCO)=CC1c1ccc(CN2CCCC2)cc1 (stereo unspecified)', 1.11),
  ('O=C1c2ccccc2[C@](Cc2ccccc2I)(C(=O)O)[C@H](c2ccc(CO)cc2)N1Cc1ccccc1', 0.0611),
  ('COc1ccc(CCNC(=O)[C@@]2(Sc3ccc(C)cc3)CC(=O)N(C(C)C)[C@@H]2c2ccc(CO)cc2)cc1', -0.0606);

Next item in the queue.
Requested read-out: composite z-score. Entry: "COC(=O)[C@@]1(Cc2ccccc2)[C@H]2c3cc(C(=O)N4CCCC4)n(Cc4ccc(C(F)(F)F)nc4)c3C[C@H]2CN1C(=O)c1ccccc1"
0.747

Reference for the values: PubChem BioAssay
